- assay explanation: Solubility at pH 7.4
- Assay type: physicochemical
test readout: Sol @ pH 7.4

>>> result("O=C(NCCN1CCOCC1)c1ccc(-n2c(=O)ccc3cnc4ccc(-c5ccc(Cl)cc5)cc4c32)cc1 [Compound 215]")
"<1 ug/mL"

Exam item: What does the data say about its Sol @ pH 7.4? Entry: C[C@@H]1CN(C(=O)c2ccc(-n3c(=O)ccc4cnc5ccc(-c6ccc(Cl)cc6)cc5c43)cc2)C[C@H](C)O1 [Compound 101]
Marked response: <1.0 ug/mL

Exam item: What does the data say about its Sol @ pH 7.4? Entry: COc1cc(-c2ccc3ncc4ccc(=O)n(-c5ccc(C(=O)N6CCOCC6)cc5)c4c3c2)ccc1Cl [Compound 145]
Marked response: <1.0 ug/mL

Exam item: What does the data say about its Sol @ pH 7.4? Entry: CN(C(=O)c1ccc(-n2c(=O)ccc3cnc4ccc(-c5ccc(Cl)cc5)cc4c32)cc1)C1CC1 [Compound 143]
Marked response: <1.0 ug/mL

Exam item: What does the data say about its Sol @ pH 7.4? Entry: CCN(CC)C(=O)c1ccc(-n2c(=O)ccc3cnc4ccc(-c5ccc(Cl)cc5)cc4c32)cc1 [Compound 132]
Marked response: <1.0 ug/mL

Exam item: What does the data say about its Sol @ pH 7.4? Entry: CN(C)Cc1ccc(-c2ccc3ncc4ccc(=O)n(-c5ccc(C(=O)N6CCNCC6)cc5)c4c3c2)cc1 [Compound 167]
Marked response: >76.0 ug/mL

Exam item: What does the data say about its Sol @ pH 7.4? Entry: Cn1c(=O)n(-c2ccc(N3CCN(CCO)CC3)c(C#N)c2)c2c3cc(-c4ccc(Cl)cc4)ccc3ncc21 [Compound 417]
Marked response: <1 ug/mL

Exam item: What does the data say about its Sol @ pH 7.4? Entry: NC(=O)c1ccc(-n2c(=O)ccc3cnc4ccc(-c5ccc(N)nc5)cc4c32)cc1 [Compound 336]
Marked response: <1.0 ug/mL
